assay: Plasma pharmacokinetics, non-compartmental analysis; format: in vivo, human; settings: human, plasma, oral, 60 mg, t1/2, Amean (range), single dose; 60 mg tablet (n=7)
measurement_label: half-life (min)

1. COc1ccc(-c2ccc3c(N4CCOC[C@@H]4C)nc(N4CCOC[C@@H]4C)nc3n2)cc1CO 142

---

experiment: Plasma pharmacokinetics, non-compartmental analysis; assay type: in vivo, human; settings: human, plasma, oral, 120 mg, AUCss, Gmean (n) (range), following BID dosing; 120 mg BID tablet
measurement_label: AUC (ng·h/mL)

1) COc1ccc(-c2ccc3c(N4CCOC[C@@H]4C)nc(N4CCOC[C@@H]4C)nc3n2)cc1CO 501
